Would you kindly list pEC50 for each of these molecules?
# EXPERIMENTAL SYSTEM: UniProt Q14397
# ASSAY PROCEDURE: GKRP NADPH Coupled Assay
# Assay type: biochemical
# CONDITION DESCRIPTION: indirect measure of glucose-6-phosphate, fluorescence; 1 μM GKRP (10×), 20 nM GK (5×); read-out: GK-GKRP EC50 (NADPH-coupled)
One number for each entry, as −log10 of the molar value.

Quick request: pEC50 for each listed item, please.
1. CC(O)(c1ccc(N2CCN(S(=O)(=O)c3cccs3)CC2CC#N)cc1)C(F)(F)F (mixture of isomers)
2. CC(O)(c1ccc(N2CCN(S(=O)(=O)c3cccs3)CC2CC2CCCCC2)cc1)C(F)(F)F (mixture of isomers)
3. CC(O)(c1ccc(N2CCN(S(=O)(=O)c3ccccc3)CC2CC2CCOCC2)cc1)C(F)(F)F (centres unmarked)

-- reply
5.52
6.00
6.11

Take each entry in turn and give its pEC50.
1. CC(C)(CO)NCC1CN(S(=O)(=O)c2cccs2)CCN1c1ccc(C(C)(O)C(F)(F)F)cc1 (mixture of isomers)
2. CC(C)CC1CN(S(=O)(=O)c2cccs2)CCN1c1ccc(C(C)(O)C(F)(F)F)cc1 (mixture of isomers)

-- reply
[5.53, 6.18]

====

# EXPERIMENTAL SYSTEM: interaction between glucokinase (GK) and glucokinase regulatory protein (GKRP) (Homo sapiens, UniProt Q14397)
# ASSAY PROCEDURE: biochemical
# Assay type: binding
# CONDITION DESCRIPTION: avi-tagged GKRP, GK-fluorescein, AlphaScreen beads; read-out: GK-GKRP IC50 (Binding)
METRIC: IC50 (nM)
Answers are plain numbers, in nM.

Record excerpt, results attached:
MOLECULE	IC50, nM
CC(C)CS(=O)(=O)NC[C@H]1CN(S(=O)(=O)c2cccs2)CCN1c1ccc(C(C)(O)C(F)(F)F)cc1 (mixture of isomers)	507
CC(O)(c1ccc(N2CCN(S(=O)(=O)c3cccs3)CC2CN2C3COCC2C(O)C3)cc1)C(F)(F)F (single isomer, unassigned) [Example 77 Peak #2]	11
C[C@H]1COCCN1C[C@H]1CN(S(=O)(=O)c2ccc(N)nc2)CCN1c1ccc(C(C)(O)C(F)(F)F)cc1 (single isomer, unassigned) [Example 125 Peak #2]	7
CC(O)(c1ccc(N2CCN(S(=O)(=O)c3cccs3)C[C@@H]2CN2C3COCC2C(O)C3)cc1)C(F)(F)F (stereo partly shown) [Example 78]	42
CC(O)(c1ccc(N2CCN(S(=O)(=O)c3ccc(N)nc3)C[C@@H]2CC2CCOCC2)cc1)C(F)(F)F (mixture of isomers)	55

Parameters: items (list). Returns: IC50 for each item.
1. CC(O)(c1ccc(N2CCN(S(=O)(=O)c3cccs3)C[C@@H]2CN2C3COCC2C(O)C3)cc1)C(F)(F)F (single isomer, unassigned) [Example 78 Peak #4]
2. CC(O)(c1ccc(N2CCN(S(=O)(=O)c3ccc(N)s3)C[C@@H]2Cc2ccccc2)cc1)C(F)(F)F (mixture of isomers)

-- reply
40
250

For each listed entry, give its IC50.
1. CC(O)(c1ccc(N2CCN(S(=O)(=O)c3cccs3)C[C@@H]2CN(Cc2cccnc2)S(C)(=O)=O)cc1)C(F)(F)F (mixture of isomers)
2. CC1(COC[C@H]2CN(S(=O)(=O)c3cccs3)CCN2c2ccc(C(C)(O)C(F)(F)F)cc2)COC1 (mixture of isomers)
3. CC(O)(c1ccc(N2CCN(S(=O)(=O)c3cccs3)C[C@@H]2CN2CCC(=O)CC2)cc1)C(F)(F)F (mixture of isomers)

-- reply
1: 13; 2: 467; 3: 564

====

# EXPERIMENTAL SYSTEM: interaction between glucokinase (GK) and glucokinase regulatory protein (GKRP) (Homo sapiens)
# Sequence (Q14397 1-625): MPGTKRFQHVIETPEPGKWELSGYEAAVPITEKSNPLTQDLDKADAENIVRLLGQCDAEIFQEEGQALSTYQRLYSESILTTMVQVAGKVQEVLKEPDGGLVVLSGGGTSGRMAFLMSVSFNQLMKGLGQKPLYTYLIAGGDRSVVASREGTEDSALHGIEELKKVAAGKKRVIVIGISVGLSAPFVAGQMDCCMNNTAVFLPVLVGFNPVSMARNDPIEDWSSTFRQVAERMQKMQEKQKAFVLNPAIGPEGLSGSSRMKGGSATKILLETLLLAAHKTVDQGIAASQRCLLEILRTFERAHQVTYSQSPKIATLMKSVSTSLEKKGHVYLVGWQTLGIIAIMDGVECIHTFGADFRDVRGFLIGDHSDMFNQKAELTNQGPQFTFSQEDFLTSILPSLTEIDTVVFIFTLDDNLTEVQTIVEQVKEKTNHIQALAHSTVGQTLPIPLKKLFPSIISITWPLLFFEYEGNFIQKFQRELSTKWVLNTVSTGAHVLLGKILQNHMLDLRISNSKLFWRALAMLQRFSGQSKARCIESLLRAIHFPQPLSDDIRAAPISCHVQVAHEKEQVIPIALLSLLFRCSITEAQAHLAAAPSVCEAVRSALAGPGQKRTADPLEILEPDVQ
# ASSAY PROCEDURE: biochemical
# Assay type: binding
# CONDITION DESCRIPTION: avi-tagged GKRP, GK-fluorescein, AlphaScreen beads; read-out: GK-GKRP IC50 (Binding)
METRIC: IC50 (nM)
One number for each entry, in nM.

Example entries and their recorded answers appear below.
COMPOUND	METRIC	VALUE REPORTED
CC1(C)C(=O)NCCN1C[C@H]1CN(S(=O)(=O)c2ccc(N)s2)CCN1c1ncc(C(O)(C(F)(F)F)C(F)(F)F)cn1	IC50	2
C[C@H]1COCCN1C[C@H]1CN(S(=O)(=O)c2ccc(N)nc2)CCN1c1ccc(C(C)(O)C(F)(F)F)cc1 (mixture of isomers) [Example 125]	IC50	3

Now let's try a different one.
-- ask Determine from records and report IC50 for CC(F)(c1ccc(N2CCN(S(=O)(=O)c3cccs3)C[C@@H]2CN2C3CCCC2CC(F)C3)cc1)C(F)(F)F (mixture of isomers)
-- reply 47

====

# EXPERIMENTAL SYSTEM: GKRP (Glucokinase Regulatory Protein) with human His-hepatic GK (Homo sapiens)
# Sequence (Q14397 1-625): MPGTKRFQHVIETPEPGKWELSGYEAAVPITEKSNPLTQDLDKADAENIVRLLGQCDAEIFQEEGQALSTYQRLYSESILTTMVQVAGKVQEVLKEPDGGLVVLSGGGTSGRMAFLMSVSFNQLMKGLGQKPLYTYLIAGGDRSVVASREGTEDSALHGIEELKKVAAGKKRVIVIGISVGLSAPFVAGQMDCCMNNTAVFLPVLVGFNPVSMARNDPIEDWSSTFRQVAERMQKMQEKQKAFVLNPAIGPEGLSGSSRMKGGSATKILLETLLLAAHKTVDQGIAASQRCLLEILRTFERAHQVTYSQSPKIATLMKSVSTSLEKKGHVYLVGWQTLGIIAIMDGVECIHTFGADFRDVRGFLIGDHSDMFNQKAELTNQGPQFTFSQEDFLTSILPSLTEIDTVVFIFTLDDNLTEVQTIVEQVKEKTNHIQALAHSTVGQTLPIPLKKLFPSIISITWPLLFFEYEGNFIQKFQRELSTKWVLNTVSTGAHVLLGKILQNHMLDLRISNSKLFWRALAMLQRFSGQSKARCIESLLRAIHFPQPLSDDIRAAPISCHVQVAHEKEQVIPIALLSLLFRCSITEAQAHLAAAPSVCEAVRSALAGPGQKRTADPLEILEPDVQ
# ASSAY PROCEDURE: biochemical
# CONDITION DESCRIPTION: 13C-glucose-6-phosphate formation; 280 nM GKRP (10×), 30 nM GK (5×); read-out: GK-GKRP EC50 (LC MS/MS-2)
pEC50: −log10 of the molar value.
Classify as follows. Reported pEC50 greater than or equal to 7: 1.0. Reported pEC50 below: 0.0.

COMPOUND	GROUP
CC1(O)C[C@H]2COC[C@@H](C1)N2C[C@H]1CN(S(=O)(=O)c2cccs2)CCN1c1ccc(C(C)(O)C(F)(F)F)cc1 (stereo partly drawn) [Example 108]	1.0

-- ask Check the entry CC(O)(c1ccc(N2CCN(S(=O)(=O)c3cccs3)C[C@@H]2COCC2CCCO2)cc1)C(F)(F)F (mixture of isomers) [Example 118] : does pEC50 equal or exceed 7?
-- reply 0.0

-- ask Is pEC50 for CC(O)(c1ccc(N2CCN(S(=O)(=O)c3cccs3)C[C@@H]2CS(=O)(=O)c2ccc(F)cc2)cc1)C(F)(F)F (mixture of isomers) [Example 191 Peak#1] at or above 7?
-- reply 0.0

-- ask Decide: pEC50 of C[C@H]1COCCN1C[C@H]1CN(S(=O)(=O)c2cccs2)CCN1c1ccc(C(O)(CO)C(F)(F)F)cc1 (single isomer, unassigned) [Example 83 Peak #2] >= 7?
-- reply 1.0

-- ask Assess whether reported pEC50 for Nc1ccc(S(=O)(=O)N2CCN(c3ncc(C(O)(C(F)(F)F)C(F)(F)F)cn3)[C@@H](CN3C4COCC3CC(O)C4)C2)s1 (stereo partly drawn) [Example 98 nonan-7-ol (endo)] sits at 7 or higher.
-- reply 1.0

-- ask I'd appreciate it if you could say whether CC(C)CN(C[C@H]1CN(S(=O)(=O)c2cccs2)CCN1c1ccc(C(C)(O)C(F)(F)F)cc1)S(C)(=O)=O (mixture of isomers) [Example 201] has pEC50 at least equal to 7.
-- reply 1.0

-- ask // inclusive: pEC50 at least 7? input: C[C@H]1COCCN1C[C@H]1CN(S(=O)(=O)c2ccc(N)nc2)CCN1c1ccc(C(C)(O)C(F)(F)F)cc1 (single isomer, unassigned) [Example 125 Peak #2]
-- reply 1.0

-- ask Is pEC50 at least 7? Consider CC(C)CS(=O)(=O)NC[C@H]1CN(S(=O)(=O)c2cccs2)CCN1c1ccc(C(C)(O)C(F)(F)F)cc1 (mixture of isomers) [Example 210]
-- reply 0.0

-- ask // inclusive: pEC50 at least 7? input: CC(O)(c1ccc(N2CCN(S(=O)(=O)c3cccs3)C[C@@H]2Cn2ccc3nccnc32)cc1)C(F)(F)F (mixture of isomers) [Example 171]
-- reply 0.0

-- ask Check this compound for pEC50 at or above 7: CC(O)(c1ccc(N2CCN(S(=O)(=O)c3cccs3)C[C@@H]2Cn2ccnc2)cc1)C(F)(F)F (mixture of isomers) [Example 170]
-- reply 0.0

-- ask Check if pEC50 >= 7 (inclusive). Item: CC(O)(c1ccc(N2CCN(S(=O)(=O)c3cccs3)C[C@@H]2CSc2ccccc2F)cc1)C(F)(F)F (mixture of isomers) [Example 219]
-- reply 1.0

-- ask Does the reported pEC50 for CS(=O)(=O)N(C[C@H]1CN(S(=O)(=O)c2ccc(N)s2)CCN1c1ncc(C(O)(C(F)(F)F)C(F)(F)F)cn1)c1ccccc1 [Example 233] fall at or above the 7 mark?
-- reply 1.0

-- ask Hello, I need to know if CC1(C)C(=O)NCCN1C[C@H]1CN(S(=O)(=O)c2cccs2)CCN1c1ccc(C(C)(O)C(F)(F)F)cc1 (single isomer, unassigned) [Example 180 Peak #2] has measured pEC50 not below 7. Thanks!
-- reply 1.0

-- ask Answer whether pEC50 of C[C@H]1CN(S(=O)(=O)c2ccccc2N)CCN1c1ccc(C(O)(C(F)(F)F)C(F)(F)F)cc1 [Example 168] is greater than or equal to 7.
-- reply 0.0

-- ask Please indicate if the recorded pEC50 for CC(O)(c1ccc(N2CCN(S(=O)(=O)c3cccs3)C[C@@H]2CSc2ccc(F)cc2)cc1)C(F)(F)F (mixture of isomers) [Example 190] meets or exceeds 7.
-- reply 1.0

Cited source: patent US8431563B2
